Data provenance is patent US5985911A.

# assayed target: stromelysin (Homo sapiens, UniProt P08254)
# Construct: made in house; host or cells: E. coli
# Sequence (P08254 100-272 limits assumed): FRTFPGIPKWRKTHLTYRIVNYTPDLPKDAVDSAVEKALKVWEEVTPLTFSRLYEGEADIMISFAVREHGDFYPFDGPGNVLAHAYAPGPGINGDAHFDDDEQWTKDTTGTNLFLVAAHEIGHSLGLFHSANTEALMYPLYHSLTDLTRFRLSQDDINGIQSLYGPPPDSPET
# protocol notes: Determination of stromelysin inhibition (thiopeptide ester substrate cleavage, DTNB, microtiter plate)
# Type: biochemical
# settings: recombinant truncated stromelysin (human sequence); thiopeptide ester substrate, pH 6.5, 30 min, ambient temperature; read-out: IC50 (Inhibitory Potencies against Stromelysin)
measured property: IC50 (nM)
Give bare numbers, in nM.

Known IC50 results, listed for orientation:
>>> print(df.to_string())
                                   compound  result_value
0  C=CC[C@H](C(=O)NO)[C@@H](CC(C)C)C(=O)N[C@H](C(=O)c1c[nH]c2ccccc12)C(C)(C)C [Example 9]           1.2
1  Cc1ccc(CCC[C@H](CC(=O)NO)C(=O)N[C@@H](Cc2ccccc2)C(=O)c2c[nH]c3ccccc23)cc1 [Example 6]            12
2  C=CCCC[C@H](C(=O)NO)[C@@H](CC(C)C)C(=O)N[C@@H](Cc1ccc(O)cc1)C(=O)c1ccccc1 [Example 19]           1.5

We now examine a further compound.
Request: Suppose we examine the compound CC(C)C[C@@H](C(=O)N[C@H](Cc1ccccc1)C(=O)c1c[nH]c2ccccc12)[C@H](O)C(=O)O [Example 11] ; what IC50 value has been reported?
Response: 93000
